System: BMX
Conditions: concentration: 1 μM, replicates: in singlicate; n = 1;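 note: KINOMEscan kinase panel screen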
endpoint label: %Inh
Reply with the number and its unit after it.

Prompt line: Fill in: %Inh of COc1ccc(Nc2nccc(NCCNC(=O)Nc3cc(C)ccc3C)n2)cc1 is ___
Response line: 0%

Prompt line: Field entry: COc1cccc(C2=C(Nc3cc(Cl)c(O)c(Cl)c3)C(=O)NC2=O)c1
Response line: 13%

Prompt line: Field entry: COc1ccc(CSc2nnc(-c3ccc4nccn4c3)o2)cc1C(F)(F)F
Response line: 0%

Prompt line: Field entry: Cc1ccc(NC(=O)Nc2ccc(Cl)c(C(F)(F)F)c2)cc1-c1ccc(C(=O)Nc2ccncc2)cc1
Response line: 21%

Prompt line: Field entry: CC(=O)c1cccc(NC(=O)NC2CCN(c3ccnc(Nc4ccc(F)cc4)n3)C2)c1 (stereo not drawn)
Response line: 16%

Prompt line: Field entry: Nc1cccc(-c2ccc3c(N)n[nH]c3c2)n1
Response line: 1%

###

System: MLCK
Construct: gene MYLK3
Conditions: concentration: 1 μM, replicates: in singlicate; n = 1
Give measured %Inh for each item. Keep answers brief.
Enter your answer as a number in %; do not include the unit.

Prompt line: Fill in: %Inh of CCn1c(-c2ccccc2)nc2cnccc21 [SB-733416] is ___
Response line: 0

Prompt line: Field entry: Cc1ccc(NC(=O)Nc2ccc(Cl)cc2)cc1-c1ccc(C(=O)Nc2ccncc2)cc1 [GSK1398472]
Response line: 0

Prompt line: Field entry: CC(=O)c1c(C)c2cnc(Nc3ccn(C)n3)nc2n(C2CCCC2)c1=O
Response line: 0

Prompt line: Field entry: Cc1cccc2c(-c3ccncn3)c(-c3ccc(F)cc3)nn12 [GW515532]
Response line: 0

Prompt line: Field entry: COC(=O)C(NC(=O)NC1CCN(c2ccnc(Nc3ccc(F)cc3)n2)C1)c1ccccc1 (centres unmarked) [GSK1379712]
Response line: 5

Prompt line: Field entry: COC(=O)c1cccc(NC(=O)NC2CCN(c3ccnc(Nc4ccc(F)cc4)n3)C2)c1 (centres unmarked) [GSK1379725]
Response line: 0

Prompt line: Field entry: FC(F)(F)c1ccccc1-c1cc(-c2c[nH]nc2-c2ccccn2)ccn1 [GW679396]
Response line: 4

Prompt line: Field entry: Cn1cnc2c(N)ncnc21 [SKF-97623]
Response line: 0

Prompt line: Field entry: CSc1ccc(-c2nc3n(c2-c2ccncc2)CCC3)cc1 [SKF-105561]
Response line: 0

Prompt line: Field entry: Cc1nccc(-c2c(-c3ccc(F)cc3)ncn2CCCN2CCOCC2)n1.Cl [SB-282975]
Response line: 0

Prompt line: Field entry: Cn1cncc1C(=O)NC1CCN(c2ccnc(Nc3ccc(F)cc3)n2)C1 (centres unmarked) [GSK1379717]
Response line: 0

Prompt line: Field entry: Cn1cncc1-c1cc2c(Nc3ccc(OCc4ccccc4)cc3)ncnc2cn1 [GW281179]
Response line: 0

Prompt line: Field entry: Cc1c(Cn2c3ccccc3n3c(=O)cc(N4CCOCC4)nc23)cccc1C(F)(F)F [GSK2306394]
Response line: 0

Prompt line: Field entry: COc1ccc(CSc2nnc(-c3ccc4nccn4c3)o2)cc1C(F)(F)F
Response line: 2

###

Tested on: TLK2
Settings: concentration: 1 μM, replicates: in singlicate; n = 1
endpoint label: %Inh (%)
Enter your answer as a number in %; do not include the unit.

Prompt line: Fill in: %Inh of COc1ccc(Nc2nccc(-c3ccc(NC(=O)c4cc5cc(F)ccc5[nH]4)cc3)n2)cc1 [GSK1229496] is ___
Response line: 0

Prompt line: Field entry: CN1c2ccc(-c3ccc(C(N)=O)cc3)cc2-c2[nH]ncc2S1(=O)=O
Response line: 0

Prompt line: Field entry: O=C(Nc1n[nH]c2cc(-c3ccsc3)ccc12)C1CC1 [SB-732932]
Response line: 0

Prompt line: Field entry: Cc1ccc(NC(=O)Nc2ccc(Cl)c(C(F)(F)F)c2)cc1-c1ccc(C(=O)Nc2ccncc2)cc1 [GSK1398470]
Response line: 8
